test system: Haemophilus influenzae 1218; test: MIC, microtiter broth dilution (NCCLS M100-S14), H. influenzae 1218 (susceptible); format: cell-based; details: Haemophilus influenzae 1218

COMPOUND	MIC H. influenzae 1218, µg/mL
CCC1OC(=O)C(C)C(=O)C(C)C(OC2OC(C)CC(N(C)C)C2O)C(C)(OC)CC(C)C(=O)C(C)C2N(C3CN(S(=O)(=O)c4ccc(-c5nnc(C)o5)cc4)C3)C(=O)OC12C (stereo not drawn)	2
CCC1OC(=O)C(C)C(=O)C(C)C(OC2OC(C)CC(N(C)C)C2O)C(C)(OC)CC(C)C(=O)C(C)C2N(C3CN(S(=O)(=O)c4cccc(-c5nnc(C)o5)c4)C3)C(=O)OC12C (stereo not drawn)	2
CCC1OC(=O)C(C)C(=O)C(C)C(OC2OC(C)CC(N(C)C)C2O)C(C)(OC)CC(C)C(=O)C(C)C2N(CC3CN(Cc4cnc5ccccc5n4)C3)C(=O)OC12C (stereo not drawn)	1

---

test system: Streptococcus pneumoniae 1095; format: cell-based; settings: S. pneumoniae 1095 (ermB); microtiter broth dilution

COMPOUND	ASSAYED_TARGET	ENDPOINT_UNIT	VALUE_MODIFIER	MIC S. pneumo. 1095
CCC1OC(=O)C(C)C(=O)C(C)C(OC2OC(C)CC(N(C)C)C2O)C(C)(OC)CC(C)C(=O)C(C)C2N(CC3CCN(Cc4c[nH]c5cc(=O)[nH]cc45)C3)C(=O)OC12C (centres unmarked)	Streptococcus pneumoniae 1095	mg/L	=	16
CCC1OC(=O)C(C)C(=O)C(C)C(OC2OC(C)CC(N(C)C)C2O)C(C)(OC)CC(C)C(=O)C(C)C2N(CC3CCCN3C(=O)c3cc4cnccc4nc3C)C(=O)OC12C (centres unmarked)	Streptococcus pneumoniae 1095	mg/L	<	0.06
CC[C@H]1OC(=O)[C@H](C)C(=O)[C@H](C)[C@@H](O[C@@H]2O[C@H](C)C[C@H](N(C)C)[C@H]2O)[C@](C)(OC)C[C@@H](C)C(=O)[C@H](C)[C@H]2N(CC3(O)CN(C(=O)c4cccc5cccnc45)C3)C(=O)O[C@]12C	Streptococcus pneumoniae 1095	mg/L	=	2
CCC1OC(=O)C(C)C(=O)C(C)C(OC2OC(C)CC(N(C)C)C2O)C(C)(OC)CC(C)C(=O)C(C)C2N(C3CCN(Cc4cnc5ccccc5c4)C3)C(=O)OC12C (centres unmarked)	Streptococcus pneumoniae 1095	mg/L	<	0.06
CCC1OC(=O)C(C)C(=O)C(C)C(OC2OC(C)CC(N(C)C)C2O)C(C)(OC)CC(C)C(=O)C(C)C2N(CC3CCN(Cc4c[nH]c5ncccc45)C3)C(=O)OC12C (centres unmarked) [13.01]	Streptococcus pneumoniae 1095	mg/L	=	0.25

---

system: Streptococcus pneumoniae 1175; assay type: cell-based; conditions: Streptococcus pneumoniae 1175; microtiter broth dilution

COMPOUND	VALUE_MODIFIER	MIC S. pneumo. 1175 / µg/mL
CCC1OC(=O)C(C)C(=O)C(C)C(OC2OC(C)CC(N(C)C)C2O)C(C)(OC)CC(C)C(=O)C(C)C2N(C3CN(S(=O)(=O)c4ccc(-c5nnco5)cc4)C3)C(=O)OC12C (centres unmarked) [Example 3.56]	<	0.06
CCC1OC(=O)C(C)C(=O)C(C)C(OC2OC(C)CC(N(C)C)C2O)C(C)(OC)CC(C)C(=O)C(C)C2N(C3CN(S(=O)(=O)c4ccc5nn[nH]c5c4)C3)C(=O)OC12C (centres unmarked) [Example 3.57]	=	8
CCC1OC(=O)C(C)(F)C(=O)C(C)C(OC2OC(C)CC(N(C)C)C2O)C(C)(OC)CC(C)C(=O)C(C)C2N(C3CN(Cc4ccnc5ncccc45)C3)C(=O)OC12C (centres unmarked) [Example 1.33]	<	0.06
CCC1OC(=O)C(C)C(=O)C(C)C(OC2OC(C)CC(N(C)C)C2O)C(C)(OC)CC(C)C(=O)C(C)C2N(C3CN(S(=O)(=O)c4ccc(-n5nc(C)c(=O)[nH]c5=O)cc4)C3)C(=O)OC12C (centres unmarked) [Example 3.14]	=	1
CCC1OC(=O)C(C)C(=O)C(C)C(OC2OC(C)CC(N(C)C)C2O)C(C)(OC)CC(C)C(=O)C(C)C2N(C3CN(S(=O)(=O)c4cccc5cnccc45)C3)C(=O)OC12C (centres unmarked) [Example 3.04]	<	0.06

Just for reference, patent US7462600B2 is where these values come from.
